- studySystem: purified human integrin proteins αvβ3 (Homo sapiens, UniProt P05106+P06756)
- Construct: purchased Sino Biological Europe GmbH, Eschborn, Germany
- protocolDetails: Solid-phase integrin binding assay (competition with biotinylated vitronectin)
- conditionsUsed: at 10 μM; read-out: Inhibition % of biotinylated vitronectin specific binding to αvβ3
quantityMeasured: inhibition at 10 µM (%)

Study these solved cases before continuing.
N=C(N)NCCCOc1ccc(C[C@H](NS(=O)(=O)c2ccc(-c3ccccc3)cc2)C(=O)O)cc1 = 5
NCCCOc1ccc(C[C@H](NS(=O)(=O)c2ccc(-c3ccccc3)cc2)C(=O)NO)cc1 = 88
NCCCOc1ccc(C[C@H](NS(=O)(=O)c2ccc(-c3ccccc3)cc2)C(=O)O)cc1 = 19

1. NCCCOc1ccc(C[C@H](NS(=O)(=O)c2ccc([N+](=O)[O-])cc2)C(=O)O)cc1
2. N=C(N)NCCCOc1ccc(C[C@H](NS(=O)(=O)c2ccccc2)C(=O)O)cc1
3. O=C(NO)[C@H](Cc1ccc(O)cc1)NS(=O)(=O)c1ccc(-c2ccccc2)cc1
Request: Sort the molecules on inhibition at 10 µM; start with the lowest figure. Write the labels out in the order the request specifies.
Result: 1, 3, 2
